Molecular target: Histone acetyltransferase p300 (Homo sapiens)
Test: Binding affinity to human recombinant P300 catalytic domain by SPR analysis
Experimental Readout: Kd (nM)
Express it in nM; write the number only.

Structure Notation: O=C(c1ccccc1)C1C(=O)N(Cc2ccccc2)C(=O)N(Cc2ccccc2)C1=O
Measurement Target: Histone acetyltransferase p300 (Homo sapiens)
Experimental Readout: Kd
Measured Value: 2400

Lab note: next compound to report on.
Report Kd for `O=C1C(Cc2ccccc2)C(=O)N(Cc2ccccc2)C(=O)N1Cc1ccccc1` please.
110

====

Measured inhibition, listed per entry for reference.
Target: Histone acetyltransferase p300 (Homo sapiens, UniProt Q09472)
Sequence (Q09472 whole entry, the tested form may be a part): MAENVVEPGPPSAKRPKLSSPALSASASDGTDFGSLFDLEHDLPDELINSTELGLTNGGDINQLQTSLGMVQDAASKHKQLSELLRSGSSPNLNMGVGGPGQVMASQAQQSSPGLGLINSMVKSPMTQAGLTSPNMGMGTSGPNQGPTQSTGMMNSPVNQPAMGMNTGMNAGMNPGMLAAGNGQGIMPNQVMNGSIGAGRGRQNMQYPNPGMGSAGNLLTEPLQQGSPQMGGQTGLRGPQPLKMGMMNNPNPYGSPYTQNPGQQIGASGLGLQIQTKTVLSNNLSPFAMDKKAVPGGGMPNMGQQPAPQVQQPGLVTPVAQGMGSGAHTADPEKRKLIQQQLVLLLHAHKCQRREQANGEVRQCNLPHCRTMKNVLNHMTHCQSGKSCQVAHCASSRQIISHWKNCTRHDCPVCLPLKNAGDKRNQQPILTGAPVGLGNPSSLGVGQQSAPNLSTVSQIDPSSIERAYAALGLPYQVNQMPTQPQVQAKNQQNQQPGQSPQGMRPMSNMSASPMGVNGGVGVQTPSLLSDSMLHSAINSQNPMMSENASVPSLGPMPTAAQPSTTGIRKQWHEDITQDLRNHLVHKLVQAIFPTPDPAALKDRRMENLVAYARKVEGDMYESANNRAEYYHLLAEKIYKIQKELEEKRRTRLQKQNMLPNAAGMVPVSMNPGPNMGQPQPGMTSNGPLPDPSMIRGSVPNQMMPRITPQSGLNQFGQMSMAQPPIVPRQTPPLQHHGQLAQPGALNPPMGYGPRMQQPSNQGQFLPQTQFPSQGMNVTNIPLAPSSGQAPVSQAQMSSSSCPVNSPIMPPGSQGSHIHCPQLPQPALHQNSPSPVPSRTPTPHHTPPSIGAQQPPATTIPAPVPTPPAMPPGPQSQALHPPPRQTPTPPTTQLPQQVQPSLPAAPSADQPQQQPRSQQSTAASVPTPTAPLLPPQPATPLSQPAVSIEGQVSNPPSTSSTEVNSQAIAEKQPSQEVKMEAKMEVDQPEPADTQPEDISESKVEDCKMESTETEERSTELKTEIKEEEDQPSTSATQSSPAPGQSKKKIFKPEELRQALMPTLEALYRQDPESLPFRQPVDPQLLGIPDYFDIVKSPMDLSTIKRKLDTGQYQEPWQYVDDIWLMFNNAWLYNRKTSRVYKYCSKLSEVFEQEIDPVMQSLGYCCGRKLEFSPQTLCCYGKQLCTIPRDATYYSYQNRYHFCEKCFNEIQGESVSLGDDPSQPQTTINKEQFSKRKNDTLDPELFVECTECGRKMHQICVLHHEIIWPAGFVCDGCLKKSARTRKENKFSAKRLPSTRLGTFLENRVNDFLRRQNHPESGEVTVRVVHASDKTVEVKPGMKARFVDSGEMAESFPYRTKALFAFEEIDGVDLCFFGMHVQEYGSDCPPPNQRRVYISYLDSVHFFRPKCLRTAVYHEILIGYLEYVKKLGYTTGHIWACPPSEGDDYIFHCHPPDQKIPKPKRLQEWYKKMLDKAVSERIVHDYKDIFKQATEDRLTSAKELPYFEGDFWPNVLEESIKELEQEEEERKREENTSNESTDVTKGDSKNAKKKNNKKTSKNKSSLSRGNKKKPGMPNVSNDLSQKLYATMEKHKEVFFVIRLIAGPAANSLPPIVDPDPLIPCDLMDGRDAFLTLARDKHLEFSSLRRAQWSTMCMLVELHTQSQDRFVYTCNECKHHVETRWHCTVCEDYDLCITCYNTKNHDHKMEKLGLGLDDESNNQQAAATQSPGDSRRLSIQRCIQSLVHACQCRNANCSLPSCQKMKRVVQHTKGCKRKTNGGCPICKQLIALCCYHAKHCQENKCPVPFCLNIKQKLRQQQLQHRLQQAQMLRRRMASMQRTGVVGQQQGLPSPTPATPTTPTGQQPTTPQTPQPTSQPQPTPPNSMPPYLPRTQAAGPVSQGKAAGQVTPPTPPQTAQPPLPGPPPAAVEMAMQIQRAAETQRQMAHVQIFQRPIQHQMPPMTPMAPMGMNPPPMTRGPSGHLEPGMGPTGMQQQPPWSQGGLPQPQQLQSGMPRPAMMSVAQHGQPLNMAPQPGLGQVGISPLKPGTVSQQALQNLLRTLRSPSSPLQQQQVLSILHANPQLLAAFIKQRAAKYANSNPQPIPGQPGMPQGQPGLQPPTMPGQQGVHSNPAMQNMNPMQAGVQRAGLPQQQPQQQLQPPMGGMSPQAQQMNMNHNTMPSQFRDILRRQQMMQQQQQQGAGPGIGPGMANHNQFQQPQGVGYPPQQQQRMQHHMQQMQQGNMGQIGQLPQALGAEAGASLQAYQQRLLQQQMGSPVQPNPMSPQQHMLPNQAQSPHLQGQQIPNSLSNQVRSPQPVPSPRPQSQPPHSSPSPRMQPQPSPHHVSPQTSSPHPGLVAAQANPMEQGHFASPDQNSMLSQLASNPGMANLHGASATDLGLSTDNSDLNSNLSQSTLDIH
Assay: Inhibition of P300 (unknown origin) using histone H3/[acetyl-3H]-acetyl coenzyme A as substrate at 100 uM
Lab note: write values as number then unit, every time.

Structure Notation: C=CCN1C(=O)C(Cc2ccccc2)C(=O)N(CC=C)C1=O
Measured Value: 28.9%

# query: inhibition of entry `CC(C)CN1C(=O)C(Cc2ccc(O)cc2)C(=O)N(CC(C)C)C1=O`
64.6%

Could you share which inhibition value was measured for `C=CCN1C(=O)C(=Cc2ccc(OC)c(O)c2)C(=O)N(CC=C)C1=O` ?
49.5%

Item under review: `C=CCN1C(=O)C(=Cc2ccc(OC)c(OC)c2)C(=O)N(CC=C)C1=O` . Reported inhibition?
31.1%

For the compound `C=CCN1C(=O)C(C(=O)c2ccc(O)c(O)c2)C(=O)N(CC=C)C1=O` , what inhibition is on record?
4.9%

Which inhibition reading was recorded for the compound `C=CCN1C(=O)C(Cc2ccc(O)c(O)c2)C(=O)N(CC=C)C1=O` ?
1.1%

Any idea what its inhibition is? The compound is `C=CCN1C(=O)C(C(=O)c2ccc(O)cc2)C(=O)N(CC=C)C1=O`
19.1%

Field request: inhibition | item: `COc1ccc(C=C2C(=O)N(CC(C)C)C(=O)N(CC(C)C)C2=O)cc1O`
84.7%

Requested read-out: inhibition. Entry: `COc1ccc(C=C2C(=O)N(Cc3ccccc3)C(=O)N(Cc3ccccc3)C2=O)cc1`
93.6%

Endpoint output: inhibition of `C=CCN1C(=O)C(=Cc2ccc(O)c(O)c2)C(=O)N(CC=C)C1=O` . Value?
61.6%
